Tested on: INS-1E rat beta cells, no cytokines, CellTiter-Glo ATP, 48 h
Assay: cytokine-free beta-cell viability effect – INS-1E rat cells, ATP luminescence, cherry pick, counter-screen for beta-cell apoptosis protection project, dose response (AID 463229)
readout_label: AC50

>>> meas_value("OC(c1cc(-c2ccc(C(F)(F)F)cc2)nc(C(F)(F)F)c1)C1CCCCN1 (stereo not given)")
"6.81 µM"
>>> meas_value("C(#Cc1ccccc1)C[N+]1(CC#Cc2cccc3ccccc23)CCCC1")
"8.17 µM"
>>> meas_value("CN1/C(=C\\C(=S)NC(=O)c2ccccc2Cl)C(C)(C)c2ccccc21")
"7.37 µM"

Noted for `Brc1ccccc1CN1CCN(Cc2c[nH]c3ccccc23)CC1` : its AC50 reads 2.76 µM

// sample `O=[N+]([O-])c1ccc(-c2nc(C(Cl)Cl)c3ccccc3n2)cc1` , its AC50 was 1.66 µM

---

Test system: INS-1E rat beta cells, no cytokines, CellTiter-Glo ATP, 48 h
Assay: cytokine-free beta-cell viability effect – INS-1E rat cells, ATP luminescence, cherry pick, counter-screen for beta-cell apoptosis protection project, dose response (AID 463229)
readout_label: AC50

>>> meas_value("O=C(Nc1ccc(Cl)cc1)/C(=C/c1cccc(O)c1)c1nc2ccccc2s1")
"4.46 µM"

Field AC50 (entry `OCCCNc1c2ccccc2nc2ccccc12` ) reads 9.09 µM

The molecule listed as `Cc1sc2ncnc(N3CCN(CCOc4ccc(Cl)cc4)CC3)c2c1C` has a reported AC50 of 4.74 µM

---

System: INS-1E rat beta cells, no cytokines, CellTiter-Glo ATP, 48 h
Experiment: cytokine-free beta-cell viability effect – INS-1E rat cells, ATP luminescence, cherry pick, counter-screen for beta-cell apoptosis protection project, dose response (AID 463229)
The source made the active and inactive calls.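 The calls were made as follows: active = compounds raising the signal whose fitted half-maximal concentration is at or below their top tested dose (cut at about 25 µM in these data); inconclusive = flat fit at 30 to 70% activity, or a poor fit; inactive = the rest.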
Your reply should match one of these outcome classes. active, inactive

The following molecules have reported results that may help.
>>> class_name("Fc1ccccc1/C=N/Nc1nc(-c2ccccn2)nc2ccccc12")
"active"
>>> class_name("Cc1ccc(/C=N/Nc2ccnc3cc(Cl)ccc23)c(C)c1")
"active"
>>> class_name("C/C(=N\\Nc1ccc2nncn2n1)c1ccccn1")
"active"
>>> class_name("COc1ccc(/C=N/Nc2cc(C)nc3ccc(OC)cc23)c(OC)c1")
"active"
>>> class_name("Cc1ccc(C2C(C=Nc3c(C)n(C)n(-c4ccccc4)c3=O)=C(c3ccccc3)Oc3ccccc32)cc1 (stereo not drawn)")
"active"
>>> class_name("COc1cccc(/C=N\\NC(=O)c2ccc(Cn3cc(Br)c([N+](=O)[O-])n3)o2)c1O")
"active"

Data request: Name the outcome recorded for `COc1ccc(C(=O)NN/C(C)=C/C(=O)C(F)(F)C(F)(F)C(F)(F)F)cc1` in the assay.
Data returned: inactive

Data request: Each molecule tested received a call. Report the one for `Brc1ccc(CN2CCN(Cc3c[nH]c4ccccc34)CC2)cc1` .
Data returned: active

Data request: Tell me the assay call for COc1ccc(C2/C=C\CN(C(=O)C3CC3)[C@H](Cc3ccccc3)C(=O)N2Cc2ccc(F)cc2)cc1 (stereo partly drawn) please.
Data returned: active

Data request: Can you look up the reported call for `COc1ccc(NS(=O)(=O)c2ccc(N3CCCCC3)c(N)c2)cc1` for me?
Data returned: active

Data request: Please let me know the test result on file for CC(C)Oc1ccc(C(CCN)C2CCCCC2)cc1 (stereo not drawn) .
Data returned: active

Data request: Returns: the outcome recorded for `COc1ccccc1-n1c(=O)oc2ccc(Cl)cc2c1=O` in this assay.
Data returned: active
